Tested on: intracellular amastigotes of T. cruzi (Tulahuen strain)
assay_summary: Trypanosoma cruzi in vitro susceptibility assay on intracellular amastigotes (β‐galactosidase strain)
Format: cell-based
run_parameters: cytotoxicity (IC50, MRC‐5) divided by T. cruzi activity (IC50)
Binarize SI (selectivity index) at 3; below is true (1), at or above is false (0).

COc1ccc(C2=NN(C(C)C)C(=O)C23CCN(C)CC3)cc1-c1cccnc1 ... true (1)
COc1ccc(C2=NN(C(C)C)C(=O)C2(C)C)c(F)c1-c1cccnc1 ... false (0)
COc1c(C)cc(C2=NN(C(C)C)C(=O)C2(C)C)cc1-c1cccnc1 ... false (0)
COc1ccc(C2=NN(C(C)C)C(=S)C2(C)C)cc1-c1cccnc1 ... false (0)
COc1cc(F)c(C2=NN(C(C)C)C(=O)C2(C)C)cc1-c1cccnc1 ... false (0)
COc1ccc(-c2cc3n(n2)CCO3)cc1-c1cccnc1 ... true (1)
COc1cc(C2=NN(C(C)C)C(=O)C2(C)C)cc(-c2cccnc2)c1 ... false (0)
COc1ccc(-c2nnc(C(C)C)o2)cc1-c1cccnc1 ... false (0)
CC(C)N1N=C(c2ccc(Cl)c(-c3cccnc3)c2)C(C)(C)C1=O ... false (0)
CC(C)N1N=C(c2cc3c(c(-c4cccnc4)c2)OCC3)C(C)(C)C1=O ... false (0)
COc1ccc(-c2nnc(-c3ccccc3)o2)cc1-c1cccnc1 ... false (0)
COc1ccc(-c2nnc(CC3CCOCC3)o2)cc1-c1cccnc1 ... false (0)
COc1ccc(-c2nc(-c3ccccc3)cs2)cc1-c1cccnc1 ... true (1)
CC(C)N1N=C(c2cccc(-c3cccnc3)c2)C(C)(C)C1=O ... false (0)
COc1ccc(C2=NN(C(C)C)C(=O)C2(C)C)cc1-c1cccnc1 ... false (0)
COc1ccc(C2=NN(C(C)C)C(=O)C23CCOCC3)cc1-c1cccnc1 ... true (1)

###

Documented IC50 across a set of compounds
Test system: MRC‐5 cells
assay_summary: MRC‐5 cytotoxicity in vitro assay (resazurin)
Assay type: cell-based, human
run_parameters: Homo sapiens, MRC5, 72 h, MRC‐5‐SV2 cytotoxicity, 72 h; SD ±0.2, n>=2; read-out: pIC50 MRC‐5 (converted)
assay_endpoint: IC50 (µM)

COc1ccc(-c2nc(C3CC3)cs2)cc1-c1cccnc1 [compound 141] ... 7.94
CC(C)N1N=C(c2cc3c(c(-c4cccnc4)c2)OCC3)C(C)(C)C1=O [compound 59] ... 25.1
COc1ccc(C2=NN(C(C)C)C(=S)C2(C)C)cc1-c1cccnc1 [compound 99] ... 15.8
COc1c(Br)cc(C2=NN(C(C)C)C(=O)C2(C)C)cc1-c1cccnc1 [compound 60] ... 25.1
CC(C)N1N=C(c2cccc(-c3cccnc3)c2)C(C)(C)C1=O [compound 61] ... 63.1

###

Documented SI (selectivity index) across a set of compounds
Tested on: intracellular amastigotes of T. cruzi (Tulahuen strain)
assay_summary: Trypanosoma cruzi in vitro susceptibility assay on intracellular amastigotes (β‐galactosidase strain)
Type: cell-based
run_parameters: cytotoxicity (IC50, MRC‐5) divided by T. cruzi activity (IC50)
assay_endpoint: SI (selectivity index)

COc1ccc(-c2nnc(C3CCCC3)o2)cc1-c1cccnc1 ... >6
COc1ccc(C2=Nn3c(C4CC4)nnc3C2(C)C)cc1-c1cccnc1 ... >4
COc1ccc(-c2nnc(-c3cccc(F)c3)o2)cc1-c1cccnc1 ... >32
COc1cc(C2=NN(C(C)C)C(=O)C2(C)C)cc(-c2cccnc2)c1OC ... >1
CC(C)N1N=C(c2ccc(C#N)c(-c3cccnc3)c2)C(C)(C)C1=O ... >1

###

System: intracellular amastigotes of T. cruzi (Tulahuen strain)
assay_summary: Trypanosoma cruzi in vitro susceptibility assay on intracellular amastigotes (β‐galactosidase strain)
Assay type: cell-based
run_parameters: cytotoxicity (IC50, MRC‐5) divided by T. cruzi activity (IC50)
assay_endpoint: SI (selectivity index)

COc1ccc(C2=NN(C(C)C)C(=O)CC2)cc1-c1cccnc1 ... 3
COc1ccc(-c2nc(-c3ccccc3)c(C)o2)cc1-c1cccnc1 ... 3
COc1ccc(-c2nc(C(C)(C)C)co2)cc1-c1cccnc1 ... 3

###

Test system: intracellular amastigotes of T. cruzi (Tulahuen strain)
assay_summary: Trypanosoma cruzi in vitro susceptibility assay on intracellular amastigotes (β‐galactosidase strain)
Type: cell-based
run_parameters: cytotoxicity (IC50, MRC‐5) divided by T. cruzi activity (IC50)
Documented SI (selectivity index) across a set of molecules
assay_endpoint: SI (selectivity index)

COc1c(Br)cc(C2=NN(C(C)C)C(=O)C2(C)C)cc1-c1cccnc1 ... 3
COc1ccc(-c2nc(-c3ccccc3)co2)cc1-c1cccnc1 ... 3
COc1ccc(-c2nc(C3CC3)cs2)cc1-c1cccnc1 ... 3

###

Documented IC50 across a set of molecules
Test system: MRC‐5 cells
assay_summary: MRC‐5 cytotoxicity in vitro assay (resazurin)
Assay type: cell-based, human
run_parameters: Homo sapiens, MRC5, 72 h, MRC‐5‐SV2 cytotoxicity, 72 h; SD ±0.2, n>=2; read-out: pIC50 MRC‐5 (converted)
assay_endpoint: IC50

COc1ccc(-c2nc(C(C)(C)C)co2)cc1-c1cccnc1 [compound 120] ... < 6.31 µM
CC(C)N1N=C(c2ccc(F)c(-c3cccnc3)c2)C(C)(C)C1=O [compound 62] ... > 63.1 µM
COc1ccc(-c2nc(-c3ccccc3)c(C)o2)cc1-c1cccnc1 [compound 124] ... < 6.31 µM
Cc1ccc(C2=NN(C(C)C)C(=O)C2(C)C)cc1-c1cccnc1 [compound 64] ... > 63.1 µM

###

Documented SI (selectivity index) across a set of compounds
System: intracellular amastigotes of T. cruzi (Tulahuen strain)
assay_summary: Trypanosoma cruzi in vitro susceptibility assay on intracellular amastigotes (β‐galactosidase strain)
Type: cell-based
run_parameters: cytotoxicity (IC50, MRC‐5) divided by T. cruzi activity (IC50)
assay_endpoint: SI (selectivity index)

CC(C)N1N=C(c2ccc(F)c(-c3cccnc3)c2)C(C)(C)C1=O ... >10
COc1cc(C)c(C2=NN(C(C)C)C(=O)C2(C)C)cc1-c1cccnc1 ... >2
Cc1ccc(C2=NN(C(C)C)C(=O)C2(C)C)cc1-c1cccnc1 ... >25
COc1ccc(-c2nc(-c3ccc(F)cc3)co2)cc1-c1cccnc1 ... >100
